Origin of values: BigSolDB 2.1

Details: in methanol, 303.15 K
endpoint_label: solubility (mole fraction)

smiles_structure: COc1c(NS(=O)(=O)c2ccc(F)cc2)cc(-c2ccc3nccc(N4CCOCC4)c3c2)cc1C(N)=O
solubility (mole fraction): 0.000398

I = COc1c(NS(=O)(=O)c2ccc(C)cc2)cc(-c2ccc3ncnc(N4CCOCC4)c3c2)cc1C(N)=O
II = COc1c(NS(=O)(=O)c2ccc(F)cc2)cc(-c2ccc3ncnc(N4CCOCC4)c3c2)cc1C(N)=O
Hello, I am sorting some records. Could you say if I or II has the smaller solubility (mole fraction) value? Please indicate the selected item by its label. II
(II: 0.000428, I: 0.00105)
